Test: drug combination growth inhibition, ovarian cancer – cell-based, oncology-focused library, rucaparib conditional, profiling panel (AID 1508598)
Settings: patient-derived ovarian cancer cells, CellTiter-Glo viability, 144 h; at 0.00122 µM; OCI-P5x cells; with rucaparib 20 µM; stronger effect = lower value; 100% = cells with rucaparib alone
measure_name: viability (%)
A number alone suffices; assume %.

Please review the following examples before continuing.
# smiles_structure, viability, %
rows = [
    ("COc1cccc2c1C(=O)c1c(O)c3c(c(O)c1C2=O)C[C@@](O)(C(=O)CO)C[C@H]3O[C@H]1C[C@H](N)[C@H](O)[C@H](C)O1", 110),
    ("CCNC(=O)c1noc(-c2cc(Cl)c(O)cc2O)c1-c1ccc(OC)cc1", 101),
    ("CC1=C(/C=C/C(C)=C\\C=C\\C(C)=C/C(=O)O)C(C)(C)CCC1", 78.9),
    ("Cc1cc(C)c(S(=O)(=O)n2cc(C)cc2C)c(C)c1", 97.6),
]

stdin: GET /values?readout=viability&item= `CC1(C)O[C@@H]2C[C@H]3[C@@H]4CCC5=CC(=O)C=C[C@]5(C)[C@]4(F)[C@H](O)C[C@]3(C)[C@@]2(C(=O)CO)O1`
stdout: 101

====

Assay: galactose survival enhancers in mitochondrial complex I cybrids – cell-based, galactose medium, ATP luminescence, primary screen (AID 1645843);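 also: positive z means more ATP and so rescue of galactose-driven cybrid death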
Conditions: complex I mutant cybrid cells, 72 h
Activity calls are given as the source filed them.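 How the source made its calls: active means z-score of at least 1.8 in each of two replicates, scored against plate mean and spread of sample wells; inactive means the rest.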
Mark one answer only. Choices: active, inactive

stdin: Which outcome did this test record for the compound `O=C(O)CCc1c(C(=O)O)[nH]c2cc(Cl)cc(Cl)c12` ?
stdout: inactive

stdin: Next record, please: COc1ccccc1-c1noc(C(C)n2cccn2)n1 (centres undefined)
stdout: inactive

====

Assay: viability loss with induced miR-34 in A549 – imaging, A549 dox-inducible miR-34, nuclei and caspase counts, primary screen (AID 1347080)
Conditions: A549 miR-34 inducible, Hoechst nuclei count, 48 h; measured here: total cells without miR-34 induction
# cell count listing for each entry below
Answer as a number with no unit attached.

# compound, cell count
measured = [
    ("NCC1OC(O[C@@H]2[C@H](O)C(OC3C(O)C(N)CC(N)C3OC3OC(CO)C(O)C(O)C3N)O[C@@H]2CO)C(N)C(O)C1O (stereo not given in full)", 9510),
]

stdin: GET /values?readout=cell count&item= `Cc1ccc(NCCCc2ccccc2)c(N)c1`
stdout: 8510

stdin: Next record, please: COC1C[C@H]2CCC(C)[C@@](O)(O2)C(=O)C(=O)N2CCCC[C@H]2C(=O)OC(C(C)CC2CCC(OP(C)(C)=O)C(OC)C2)CC(=O)C(C)C=C(C)C(O)C(OC)C(=O)C(C)CC(C)C=CC=CC=C1C (stereo not given in full)
stdout: 4270

stdin: Next record, please: CC(O)C(O)[C@H]1CNc2nc(N)[nH]c(=O)c2N1 (stereo not given in full)
stdout: 10800

====

# cell count listing for each entry below
Test: viability loss with induced miR-34 in A549 – imaging, A549 dox-inducible miR-34, nuclei and caspase counts, primary screen (AID 1347080)
Conditions: A549 miR-34 inducible, Hoechst nuclei count, 48 h; measured here: total cells without miR-34 induction
Answer as a number with no unit attached.

# molecule, cell count
data = [
    ("CC1CN(S(=O)(=O)c2cccc3cnccc23)CCN1 (stereo not given)", 10600),
    ("Cc1[nH]nc2ccc(-c3cncc(OCC(N)Cc4ccccc4)c3)cc12 (stereo not given)", 1330),
    ("CC(C)CN(C[C@H](O)[C@@H](Cc1ccccc1)NC(=O)O[C@@H]1CO[C@H]2OCC[C@H]21)S(=O)(=O)c1ccc(N)cc1", 7930),
]

stdin: GET /values?readout=cell count&item= `COc1ccc(/C=C/c2nc(NCCCN(C)C)c3ccccc3n2)cc1`
stdout: 1300

stdin: Next record, please: OCC1OC(OCCc2ccc(O)cc2)C(O)C(O)C1O (stereo not given)
stdout: 10400

stdin: Next record, please: `Cn1c(=O)c2c(nc(N3CCNCC3)n2Cc2ccccc2)n(C)c1=O`
stdout: 9410

stdin: Next record, please: `Cc1csc2ncnc(-c3cccc4ncccc34)c12`
stdout: 8300

stdin: Next record, please: `CC1(C)S[C@@H]2[C@H](NC(=O)[C@H](NC(=O)N3CCNC3=O)c3ccccc3)C(=O)N2[C@H]1C(=O)O`
stdout: 10100

stdin: Next record, please: `CC/C=C\C/C=C\C/C=C\C/C=C\C/C=C\CCCC(=O)OCC`
stdout: 11400

stdin: Next record, please: CC#C[C@@]1(O)CC[C@H]2[C@@H]3CCC4=CC(=O)CCC4=C3C(c3ccc(N(C)C)cc3)C[C@@]21C (stereo not given in full)
stdout: 7460

====

Experiment: growth inhibition, MDA-MB-436, cell-based, BGB or cisplatin combos, synergistic combos for chromothripsis tumors (AID 1671458);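 also: cells exposed for 96 hours; 0% = vehicle DMSO and 100% = killing by high DMSO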
Details: MDA-MB-436 breast carcinoma growth inhibition, drug combinations; at 0.5 µM; stronger effect = higher value
measure_name: inhibition (%)
A number alone suffices; assume %.

Please review the following examples before continuing.
# compound, inhibition / %
records = [
    ("Nc1ccn(C2CCC(CO)O2)c(=O)n1 (configuration not stated)", -21.2),
    ("CC1OC(n2cc(F)c(=O)[nH]c2=O)C(O)C1O (configuration not stated)", -32.6),
    ("COc1ccc(-c2nc(-c3cc(C(F)(F)F)cc(C(F)(F)F)c3)n(Cc3ccc(C(N)=O)cc3)c2-c2ccc(OC)cc2)cc1", -7.79),
]

stdin: GET /values?readout=inhibition&item= `Nc1nc(NC2CC2)cc(-c2cccc(Cl)c2Cl)n1`
stdout: -5.02

stdin: Next record, please: CC1OC(CC(=O)O)CC2=C1C(=O)c1c(O)cccc1C2=O (configuration not stated)
stdout: 102

stdin: Next record, please: `C=C1C(=O)O[C@@H]2C=C(C)CCC=C(C)CC[C@@H]12`
stdout: -0.98

stdin: Next record, please: NC(=O)c1cccc2[nH]c(-c3ccc(C4CCCN4)cc3F)nc12 (configuration not stated)
stdout: 12.2

====

Experiment: viability loss with induced miR-34 in A549 – imaging, A549 dox-inducible miR-34, nuclei and caspase counts, primary screen (AID 1347080)
Details: A549 miR-34 inducible, Hoechst nuclei count, 48 h; measured here: total cells without miR-34 induction
measure_name: cell count
Answer as a number with no unit attached.

# compound, cell count
data = [
    ("C=C1C(=CC=C2CCC[C@@]3(C)C2CCC3C(C)C=CC(O)C2CC2)CC(O)CC1O (some centres undefined)", 9800),
]

Now, please, on to the next compound.
stdin: GET /values?readout=cell count&item= O=C1C(Cc2ccc(O)cc2)N2C(=O)CCN(C(=O)NCc3ccccc3)[C@H]2CN1Cc1cccc2ccccc12 (some centres undefined)
stdout: 2690

====

Test: viability loss with induced miR-34 in A549 – imaging, A549 dox-inducible miR-34, nuclei and caspase counts, primary screen (AID 1347080)
Conditions: A549 miR-34 inducible, Hoechst nuclei count, 48 h; measured here: relative caspase fold change +Dox/-Dox
With a cut-off of 1, any fold change strictly below it is called y; any fold change meeting it or above is called n.

Example results:
# compound, classification
records = [
    ("NC1CCCN(c2c(C=C3SC(=O)NC3=O)cccc2-c2ccccc2)C1 (stereo not given)", "y"),
    ("Cc1cnc(CN(C)C(=O)c2n[nH]c3ccccc23)[nH]1", "n"),
    ("NC(=O)Nc1cc(-c2cccc(F)c2)sc1C(=O)NC1CCCNC1 (stereo not given)", "y"),
    ("COc1nc2ccccc2cc1-c1nnc2ccccn12", "n"),
    ("COC(=O)[C@H]1[C@H]2C[C@@H]3c4[nH]c5cc(OC)ccc5c4CCN3C[C@H]2C[C@@H](OC(=O)/C=C/c2cc(OC)c(OC)c(OC)c2)[C@@H]1OC", "n"),
]

stdin: Lab note: confirm whether the reported fold change for this compound is below 1, equality not counting. compound: `Cc1ccc(NCCCc2ccccc2)c(N)c1`
stdout: y

stdin: Next record, please: `CCCCCCCCCCC1=C(C)C(=O)C(OC)=C(OC)C1=O`
stdout: n

stdin: Next record, please: NC1=NC2C(N=C(Br)N2C2O[C@H]3COP(=O)(O)O[C@@H]3[C@@H]2O)C(=O)N1 (stereo not given in full)
stdout: n

stdin: Next record, please: CCC(C)Nc1cc(C(=O)NC2CC3CCC(C2)N3c2ccc(C(=O)C3CC3)cn2)c(C)cc1C(N)=O (stereo not given)
stdout: y

stdin: Next record, please: `COC(=O)C1=CO[C@@H](C)[C@H]2CN3CCc4c([nH]c5ccccc45)[C@@H]3C[C@H]12`
stdout: n

stdin: Next record, please: `N#CC(C#N)=C(N)/C(C#N)=C/c1ccc2[nH]ccc2c1`
stdout: y

stdin: Next record, please: `CC(=O)C=Cc1cn(C)c2ccccc12`
stdout: y

stdin: Next record, please: `CC1(C)[C@@H](O)CC[C@@]2(C)[C@H]1CC[C@]1(C)[C@H]2C(=O)C=C2[C@H]3C[C@@](C)(C(=O)O)CC[C@]3(C)CC[C@]21C`
stdout: y

stdin: Next record, please: `COc1cc(OC)c(/C=C2/C(=O)Nc3ccccc32)c(OC)c1`
stdout: y

stdin: Next record, please: Cc1onc(-c2ccccc2Cl)c1C(=O)NC1C(=O)N2C(C(=O)O)C(C)(C)S[C@@H]12 (stereo not given in full)
stdout: y

stdin: Next record, please: `O=C(Nc1cccnc1)C1CCN(C(=O)c2ccccc2Cl)CC1`
stdout: n

stdin: Next record, please: `Cn1c(=O)c2[nH]c(-c3ccc(S(=O)(=O)O)cc3)nc2n(C)c1=O`
stdout: n

stdin: Next record, please: `N[C@H](C(=O)O)[C@H](O)C(=O)O`
stdout: n

stdin: Next record, please: `CCn1cc(CNC(=O)Nc2nnc(C(C)(C)C)s2)cn1`
stdout: n

stdin: Next record, please: CCC(C)[C@@H](CO[C@@H](Cc1ccccc1)C(=O)N[C@@H](CCS(C)(=O)=O)C(=O)OC(C)C)NC[C@@H](N)CS (stereo not given in full)
stdout: n

This collection of values is drawn from PubChem BioAssay.
